Reference source: paper PMC12706802

# measured-target: HDAC1 (Homo sapiens, UniProt Q13547)
# Sequence (Q13547 whole entry): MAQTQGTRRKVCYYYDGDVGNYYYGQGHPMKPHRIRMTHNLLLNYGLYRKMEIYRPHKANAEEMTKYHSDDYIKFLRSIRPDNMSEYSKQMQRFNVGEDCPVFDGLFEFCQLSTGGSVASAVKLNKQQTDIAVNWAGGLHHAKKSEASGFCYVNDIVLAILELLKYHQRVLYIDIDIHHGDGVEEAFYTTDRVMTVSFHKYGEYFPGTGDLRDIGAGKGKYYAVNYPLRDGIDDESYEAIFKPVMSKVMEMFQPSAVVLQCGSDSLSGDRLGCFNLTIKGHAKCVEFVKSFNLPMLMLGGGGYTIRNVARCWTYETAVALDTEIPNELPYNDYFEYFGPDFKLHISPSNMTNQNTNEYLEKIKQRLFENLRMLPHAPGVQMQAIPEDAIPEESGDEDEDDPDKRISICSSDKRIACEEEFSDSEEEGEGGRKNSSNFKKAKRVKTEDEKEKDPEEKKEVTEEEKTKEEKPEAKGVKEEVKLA
# test-summary: Fluorescence-based biochemical HDAC enzyme inhibition assay (ZMAL substrate)
# condition-summary: HDAC1 IC50, with UV irradiation (10 min, 365 nm) of ST17; preincubation 1 h at RT
assay-readout: IC50 (nM)
Write the answer as a number in nM, unit excluded.

Inquiry: # IC50 lookup, item COc1cc(COc2ccc(-c3ccccc3)cc2NC(=O)c2ccc(NC(C)=O)cc2)c([N+](=O)[O-])cc1OC
Reply text: 40

* * *

# measured-target: human recombinant HDAC6 (Homo sapiens, UniProt Q9UBN7)
# Sequence (Q9UBN7 whole entry): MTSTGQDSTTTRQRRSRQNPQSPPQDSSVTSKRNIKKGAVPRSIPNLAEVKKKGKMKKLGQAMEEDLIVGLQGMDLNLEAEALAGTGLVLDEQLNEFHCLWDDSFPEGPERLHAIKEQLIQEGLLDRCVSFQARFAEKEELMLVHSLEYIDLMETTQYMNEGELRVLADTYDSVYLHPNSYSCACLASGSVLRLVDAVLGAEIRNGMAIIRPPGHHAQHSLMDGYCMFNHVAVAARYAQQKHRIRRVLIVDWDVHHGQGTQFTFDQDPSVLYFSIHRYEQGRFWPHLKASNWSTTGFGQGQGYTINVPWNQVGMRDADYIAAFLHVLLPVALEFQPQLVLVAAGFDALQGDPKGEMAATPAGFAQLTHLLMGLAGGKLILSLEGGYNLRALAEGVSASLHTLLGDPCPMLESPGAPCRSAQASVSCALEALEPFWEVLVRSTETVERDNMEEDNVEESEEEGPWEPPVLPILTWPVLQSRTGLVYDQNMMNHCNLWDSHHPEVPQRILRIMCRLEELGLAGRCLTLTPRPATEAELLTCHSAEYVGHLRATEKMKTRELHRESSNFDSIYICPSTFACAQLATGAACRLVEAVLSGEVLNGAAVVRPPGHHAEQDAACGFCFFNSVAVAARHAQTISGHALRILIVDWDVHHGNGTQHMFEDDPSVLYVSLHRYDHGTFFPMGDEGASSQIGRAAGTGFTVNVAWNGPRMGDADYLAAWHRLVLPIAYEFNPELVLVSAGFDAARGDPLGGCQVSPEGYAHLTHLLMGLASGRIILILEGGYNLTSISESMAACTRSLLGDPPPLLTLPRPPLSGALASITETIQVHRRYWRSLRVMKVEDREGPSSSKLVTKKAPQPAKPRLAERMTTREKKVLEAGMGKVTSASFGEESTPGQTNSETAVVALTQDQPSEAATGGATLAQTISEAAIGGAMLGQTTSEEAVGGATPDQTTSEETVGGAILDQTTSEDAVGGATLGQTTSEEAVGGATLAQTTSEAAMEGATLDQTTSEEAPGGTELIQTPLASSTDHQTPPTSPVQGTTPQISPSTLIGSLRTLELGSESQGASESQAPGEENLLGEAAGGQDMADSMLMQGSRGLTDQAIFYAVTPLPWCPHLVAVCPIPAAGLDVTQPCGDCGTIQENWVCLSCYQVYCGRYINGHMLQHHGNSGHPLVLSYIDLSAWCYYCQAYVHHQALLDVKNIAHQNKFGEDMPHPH
# test-summary: Fluorescence-based biochemical HDAC enzyme inhibition assay (ZMAL substrate)
# condition-summary: read-out: HDAC6 IC50; with UV irradiation (10 min, 365 nm) of ST17; preincubation 15 min at RT
assay-readout: IC50

Inquiry: # IC50 lookup, item COc1cc(COc2ccc(-c3ccccc3)cc2NC(=O)c2ccc(NC(C)=O)cc2)c([N+](=O)[O-])cc1OC
Reply text: > 10 µM
